Target: HiBiT-BRM (Homo sapiens)
Construct: expressed in transfected cells
Sequence (P51531 whole entry): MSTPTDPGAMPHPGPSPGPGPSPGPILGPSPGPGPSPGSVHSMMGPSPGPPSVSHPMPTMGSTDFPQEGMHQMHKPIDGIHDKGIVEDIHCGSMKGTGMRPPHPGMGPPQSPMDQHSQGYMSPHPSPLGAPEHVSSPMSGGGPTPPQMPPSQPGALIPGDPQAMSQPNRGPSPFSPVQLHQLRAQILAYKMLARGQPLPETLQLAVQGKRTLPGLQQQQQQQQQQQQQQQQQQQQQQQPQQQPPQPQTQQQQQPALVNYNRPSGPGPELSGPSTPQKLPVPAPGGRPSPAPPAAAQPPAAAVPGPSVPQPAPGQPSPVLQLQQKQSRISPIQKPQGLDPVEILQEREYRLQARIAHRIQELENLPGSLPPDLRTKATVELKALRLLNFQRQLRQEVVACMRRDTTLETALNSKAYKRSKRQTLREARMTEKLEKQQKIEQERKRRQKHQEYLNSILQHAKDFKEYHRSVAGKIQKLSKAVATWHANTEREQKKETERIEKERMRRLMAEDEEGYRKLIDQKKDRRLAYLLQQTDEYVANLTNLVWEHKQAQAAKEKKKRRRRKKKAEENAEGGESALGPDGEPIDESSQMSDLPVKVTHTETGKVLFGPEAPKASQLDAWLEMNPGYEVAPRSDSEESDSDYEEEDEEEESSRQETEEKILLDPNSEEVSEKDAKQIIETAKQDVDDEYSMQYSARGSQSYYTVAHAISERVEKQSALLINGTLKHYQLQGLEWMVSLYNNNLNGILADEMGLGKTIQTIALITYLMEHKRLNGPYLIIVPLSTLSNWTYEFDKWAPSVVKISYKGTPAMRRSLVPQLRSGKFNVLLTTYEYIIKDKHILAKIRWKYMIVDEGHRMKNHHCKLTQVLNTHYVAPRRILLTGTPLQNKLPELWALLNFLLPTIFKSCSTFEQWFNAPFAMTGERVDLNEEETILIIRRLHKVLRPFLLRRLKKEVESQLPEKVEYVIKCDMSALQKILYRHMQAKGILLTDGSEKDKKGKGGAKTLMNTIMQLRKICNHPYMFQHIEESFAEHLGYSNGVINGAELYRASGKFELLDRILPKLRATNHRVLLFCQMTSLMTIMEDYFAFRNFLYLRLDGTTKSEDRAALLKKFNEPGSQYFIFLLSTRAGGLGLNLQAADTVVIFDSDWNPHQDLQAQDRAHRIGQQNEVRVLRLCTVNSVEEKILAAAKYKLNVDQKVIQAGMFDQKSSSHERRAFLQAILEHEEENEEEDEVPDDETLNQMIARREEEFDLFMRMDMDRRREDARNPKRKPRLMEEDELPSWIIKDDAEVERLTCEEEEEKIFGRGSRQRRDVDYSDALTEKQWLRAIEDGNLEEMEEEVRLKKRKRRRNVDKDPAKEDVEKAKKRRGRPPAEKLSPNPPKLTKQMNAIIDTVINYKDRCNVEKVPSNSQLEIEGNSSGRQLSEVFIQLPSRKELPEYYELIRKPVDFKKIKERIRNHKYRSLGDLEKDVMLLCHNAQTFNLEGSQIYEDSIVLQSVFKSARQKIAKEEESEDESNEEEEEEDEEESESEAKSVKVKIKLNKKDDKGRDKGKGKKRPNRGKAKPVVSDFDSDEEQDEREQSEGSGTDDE
Experiment: HiBiT-BRM cell-based degradation assay (Nano-Glo HiBiT Lytic Detection)
Settings: HeLa cells expressing HiBiT-BRM, 24 h; read-out: BRM HiBit Degradation IC50
Where a name gives a salt, the structure may show the parent alone.
# maps each entry to its DC50

Measured DC50, Cc1ncsc1-c1ccc(CNC(=O)[C@H]2C[C@H](O)CN2C(=O)[C@H](NC(=O)COCCOCCOCCNC(=O)c2ccc(CCOc3cc(-c4ccccc4O)nnc3N)cc2)C(C)(C)C)cc1 (stereo in doubt) [Compound 60] : > 1 µM

The recorded DC50 for entry Nc1nnc(-c2cc(F)cc(Cl)c2O)cc1OCCc1ccc(CNCCCCCOc2cccc3c2C(=O)N(C2CCC(=O)NC2=O)C3=O)cc1 (stereo not drawn) [Compound 119, formic acid salt] equals > 1 µM

Lab note: Cc1ncsc1-c1ccc(CNC(=O)[C@@H]2C[C@@H](O)CN2C(=O)[C@@H](NC(=O)CCN2CCC3(CCN(CCC(=O)NCc4ccc(CCOc5cc(-c6ccccc6O)nnc5N)cc4)CC3)CC2)C(C)(C)C)cc1 [Compound 252] gave DC50 of > 1 µM
